- assayText: qHTS screen for small molecules that inhibit ELG1-dependent DNA repair in human embryonic kidney (HEK293T) cells expressing luciferase-tagged ELG1; also: nearly all actives have a fitted effect of over 55% in size
- conditionNotes: HEK293T ELG1-luciferase reporter, luminescence, 16 h, DNA damage induced by 5-fluorouridine; series mostly up to 46.1 µM
- Description: NIH Molecular Libraries Probe Production Network [MLPCN] NIH Chemical Genomics Center [NCGC] MLPCN Grant: 1 R03 MH092164-01 Assay Provider: Kyungjae Myung, NHGRI, NIH Keywords: MLPCN, qHTS, NCGC, genotoxicity, cancer Assay Overview: Cancer cells divide rapidly compared to normal cells in the body. During cell division, cancer cells need to duplicate their genome by DNA replication. […] With this in mind, we developed a quantitative high-throughput ELG1-luciferase reporter gene assay. […]
Among all 330,000 compounds or so, about 7,700 (2.3%) were called active. Another 26% or so got no clear call; they are omitted. Calls follow the shape of the dose curve; as a rule, active = well fitted inhibition curve with a large enough effect; inconclusive = small, poorly fitted or top-dose-only effect, or effect the other way; inactive = flat fitted curve, though single readings scatter. What follows is part of a selection rich in actives, with near analogues and random picks from the rest.
Labels: TRUE (active), FALSE (inactive)

>>> df
                                   molecule  label
0  O=C(NNS(=O)(=O)c1ccc([N+](=O)[O-])cc1)C1CCCCC1  FALSE
1  CCn1cc(C(=O)NCC2CCCO2)c(=O)c2cc(S(=O)(=O)N3CCCCC3)ccc21 (stereo not given)  FALSE
2  Cn1cc(/C=C/c2nc3ccccc3c(=O)n2-c2cccc([N+](=O)[O-])c2)c2ccccc21  FALSE
3  CCOC(=O)N1CCN(C(=O)c2cn(C)c3ccc(S(=O)(=O)N(CC)CC)cc3c2=O)CC1  FALSE
4  CCn1c(/C=C/c2ccc([N+](=O)[O-])o2)nc2ccccc2c1=O   TRUE
